B1: Max-interacting protein 1, residues 70 to 120; numbered along this chain, P50539 (parent)
chain: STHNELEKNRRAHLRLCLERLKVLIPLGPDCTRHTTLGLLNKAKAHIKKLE

Variants of: B1
Assay: abundance fitness (aPCA) (normalised: wild type 0, dead -1); higher = more abundant; growth selection in yeast, the domain comes from the species named
Details: Homo sapiens
Short version: abundance fitness at least -0.2 is 1, less is -1.

* K22Y | -1
* A45C | -1
* A45E | 1

Incoming: Please tell me: is the variant K48G at or over -0.2 in terms of abundance fitness?
Outgoing: -1

Incoming: I'd appreciate it if you could say whether L18H has abundance fitness at least equal to -0.2.
Outgoing: -1

Source of measurements: the Human Domainome abundance scans (Beltran et al. 2025)
